# Substrate: [H][C@]12C[C@]([H])(OO1)[C@H](C/C=C\CCCC(=O)O)[C@H]2/C=C/[C@@H](O)CCCCC
# EXPERIMENTAL DETAILS: PGDS activity kinetics of L-PGDS mutants
# Type: biochemical, mouse
# DETAILS: other: Km for PGH2, pH=8.0, 25.0 °C
ASSAY METRIC: kcat/Km

| PROTEIN | ASSAY METRIC | VALUE REPORTED |
| --- | --- | --- |
| mouse L-PGDS mutant K92E (Lys^92Glu) in Cys^89,186Ala construct (Mus musculus; C186A/C89A/K92E) (protein) QGHDTVQPNFQQDKFLGRWYSAGLASNSSWFREKKAVLYMCKTVVAPSTEGGLNLTSTFLRKNQAETEIMVLQPAGAPGHYTYSSPHSGSIHSVSVVEANYDEYALLFSRGTKGPGQDFRMATLYSRTQTLKDELKEKFTTFSKAQGLTEEDIVFLPQPDKAIQE | kcat/Km | 5.71 µM^-1Min^-1 |
| mouse L-PGDS, Wild Type(C65), Cys^89,186Ala construct, SEQ ID NO:1 (Mus musculus; C186A/C89A) (protein) QGHDTVQPNFQQDKFLGRWYSAGLASNSSWFREKKAVLYMCKTVVAPSTEGGLNLTSTFLRKNQAETKIMVLQPAGAPGHYTYSSPHSGSIHSVSVVEANYDEYALLFSRGTKGPGQDFRMATLYSRTQTLKDELKEKFTTFSKAQGLTEEDIVFLPQPDKAIQE | kcat/Km | 2.38 µM^-1Min^-1 |
| mouse L-PGDS mutant F83I (Phe^83Ile) in Cys^89,186Ala construct (Mus musculus; C186A/C89A/F83I) (protein) QGHDTVQPNFQQDKFLGRWYSAGLASNSSWFREKKAVLYMCKTVVAPSTEGGLNLTSTILRKNQAETKIMVLQPAGAPGHYTYSSPHSGSIHSVSVVEANYDEYALLFSRGTKGPGQDFRMATLYSRTQTLKDELKEKFTTFSKAQGLTEEDIVFLPQPDKAIQE | kcat/Km | 4.47 µM^-1Min^-1 |
